Please go through the items and note down their IC50.
System: A549
testDescription: Cytotoxicity against Homo sapiens (human) A549 cells assessed as growth inhibition after 48 hr by MTT assay
Type: functional, cell-based
testContext: A549, 48 h
Express the result in µM but write the number alone.

Identify measured IC50 associated with `O=c1c2ccccc2nc2n1Cc1cc3ccccc3nc1-2` 61.2

Dear colleague, please send me the reported IC50 for `COc1ccc(N2CCN(C(=O)Cc3ccc(CCCN4Cc5cc6ccccc6nc5C4=O)cc3)CC2)cc1` when you can. 68.8

Provide measured IC50 value, entry: `O=C(Cc1ccc(/C=C/CN2Cc3cc4ccccc4nc3C2=O)cc1)N1CCCCC1` 67.8

Give me measured IC50, please, for this compound: `O=C(Cc1ccc(/C=C/CN2Cc3cc4ccccc4nc3C2=O)cc1)N1CCN(c2ccccc2)CC1` 53.5

Using known records, supply IC50 for `O=C(Cc1ccc(/C=C/CN2Cc3cc4ccccc4nc3C2=O)cc1)N1CCOCC1` 46.2
